- System: Mus musculus
- protocol.description: Anticonvulsant activity in Kunming mouse assessed as protection against maximal electroshock-induced seizures at 300 mg/kg, ip measured after 0.5 hr
- Type: functional, organism-based
- Set-up: dose 300 mg/kg
The source made the active and inactive calls. The calls are words filed in the database; no cut-off is given here.
Classes to choose from: yes = active, no = inactive

Example results:
CCOC(=O)C1(NC(=O)NNC(=O)c2ccncc2)CC1(C)C (configuration not stated): no
CCOC(=O)C1(NC(=O)NNC(=O)c2ccc(OC)cc2)CC1(C)C (configuration not stated): yes
CCOC(=O)C1(NC(=O)NNC(=O)c2ccc(CC)cc2)CC1(C)C (configuration not stated): yes
CCOC(=O)C1(NC(=O)NNC(=O)c2cccnc2)CC1(C)C (configuration not stated): no
CCOC(=O)C1(NC(=O)NNC(=O)c2ccccc2F)CC1(C)C (configuration not stated): yes

Test call for this compound, please: CCOC(=O)C1(NC(=O)NNC(=O)c2ccccc2)CC1(C)C (configuration not stated) yes

Test call for this compound, please: CCOC(=O)C1(NC(=O)NNC(=O)c2ccco2)CC1(C)C (configuration not stated) no
